Observed pIC50 values for Tyrosinase (Mus musculus, UniProt P11344) are listed in what follows.
As a rule, pIC50 stands for the negative log10 of the concentration, concentration in M.

Solved cases below.
- C(=C/c1c2ccccc2cc2ccccc12)/c1ccccc1 [Trans-9-Styryl-anthracene (15)]: 3.78
- N#Cc1ccc(/C=C\c2ccccc2)cc1 [Trans-4-Styrylbenzonitrile (6)]: 4.30

Kindly consider the entry below.
Lab book: pIC50 of Clc1ccc(/C=C\c2ccccc2)cc1 [Trans-1-Chloro-4-styrylbenzene (3)] noted as 3.50
